Please respond with reported EC50 for every item in the list.
Target: F508delCFTR (Homo sapiens, UniProt P13569, DEL508-508)
Construct: expressed in transfected cells; host or cells: CFBE4lo-F508delCFTR-HRP cells (human lung derived epithelial cell line, doxycycline-inducible)
Sequence (P13569 with tags, fused parts or gaps DEL508-508): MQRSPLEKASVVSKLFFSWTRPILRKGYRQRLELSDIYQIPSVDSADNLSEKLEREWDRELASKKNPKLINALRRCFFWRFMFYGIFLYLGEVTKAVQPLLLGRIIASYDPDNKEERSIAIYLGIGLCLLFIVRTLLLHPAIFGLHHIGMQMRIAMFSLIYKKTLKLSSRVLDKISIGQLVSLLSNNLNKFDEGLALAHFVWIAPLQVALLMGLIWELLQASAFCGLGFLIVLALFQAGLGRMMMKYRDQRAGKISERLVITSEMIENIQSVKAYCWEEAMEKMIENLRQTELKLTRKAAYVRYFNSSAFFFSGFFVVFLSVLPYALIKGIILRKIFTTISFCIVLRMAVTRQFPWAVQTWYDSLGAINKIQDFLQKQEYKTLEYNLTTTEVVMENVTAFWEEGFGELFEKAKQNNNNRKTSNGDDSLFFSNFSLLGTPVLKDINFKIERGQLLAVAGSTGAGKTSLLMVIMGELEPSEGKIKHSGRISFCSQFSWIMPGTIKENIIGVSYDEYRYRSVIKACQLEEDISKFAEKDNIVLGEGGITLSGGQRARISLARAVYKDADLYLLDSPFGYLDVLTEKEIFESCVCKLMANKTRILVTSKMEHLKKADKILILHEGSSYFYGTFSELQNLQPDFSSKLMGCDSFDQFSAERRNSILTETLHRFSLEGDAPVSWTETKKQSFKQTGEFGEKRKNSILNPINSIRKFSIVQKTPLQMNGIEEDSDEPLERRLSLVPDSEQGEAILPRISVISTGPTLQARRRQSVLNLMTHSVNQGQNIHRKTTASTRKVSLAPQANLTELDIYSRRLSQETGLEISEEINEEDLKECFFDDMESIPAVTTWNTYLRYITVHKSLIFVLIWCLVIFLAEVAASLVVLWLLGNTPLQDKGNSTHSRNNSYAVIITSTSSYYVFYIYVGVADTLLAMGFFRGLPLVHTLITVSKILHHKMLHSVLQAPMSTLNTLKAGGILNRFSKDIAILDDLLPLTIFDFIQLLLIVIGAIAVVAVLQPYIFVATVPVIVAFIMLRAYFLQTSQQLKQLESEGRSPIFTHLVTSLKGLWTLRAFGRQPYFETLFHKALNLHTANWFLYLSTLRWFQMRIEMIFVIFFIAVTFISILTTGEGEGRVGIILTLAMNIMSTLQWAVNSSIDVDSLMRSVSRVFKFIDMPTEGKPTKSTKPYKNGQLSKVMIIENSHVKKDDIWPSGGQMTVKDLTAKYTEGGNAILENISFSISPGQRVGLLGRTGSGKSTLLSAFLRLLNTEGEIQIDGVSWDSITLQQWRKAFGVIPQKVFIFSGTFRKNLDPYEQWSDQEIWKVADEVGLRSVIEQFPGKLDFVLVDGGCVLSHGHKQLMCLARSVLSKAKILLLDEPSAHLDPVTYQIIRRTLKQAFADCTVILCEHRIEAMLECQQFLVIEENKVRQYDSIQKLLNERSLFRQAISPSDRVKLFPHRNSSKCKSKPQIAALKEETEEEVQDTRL
Assay: Cell Surface Expression-Horse Radish Peroxidase (CSE-HRP) Assay
Format: cell-based
Details: with co-corrector 2 μM 3-[(2R,4R)-4-({[1-(2,2-difluoro-1,3-benzodioxol-5-yl)cyclopropyl]carbonyl}amino)-7-methoxy-3,4-dihydro-2H-chromen-2-yl]benzoic acid; CFBE4lo-F508delCFTR-HRP cells, 18-24 hours at 33° C.; read-out: EC50 (with co-corrector)

Enquiry: Name the recorded EC50 of the item `COc1ccc(C2CCC2)c2c1[C@@H](C(=O)NS(=O)(=O)c1cccc3ncccc13)CCO2` in your answer.
Return: 3 to 10 µM

Enquiry: Name the recorded EC50 of the item COc1ccc(C2CCC2)c2c1C(C(=O)NS(=O)(=O)c1cccc3ncccc13)OCC2 (centres unmarked) in your answer.
Return: < 3 µM

Enquiry: Name the recorded EC50 of the item `COc1ccc(C2CCC2)c2c1[C@H](C(=O)NS(=O)(=O)c1cccc3c1CCCN3)CO2` in your answer.
Return: < 3 µM

Enquiry: Name the recorded EC50 of the item `COc1ccc(C2CCC2)c2c1[C@@H](C(=O)NS(=O)(=O)c1cccc3c1CCCN3)CO2` in your answer.
Return: 3 to 10 µM

Enquiry: Name the recorded EC50 of the item `COc1ccc(C2CCC2)c2c1[C@H](C(=O)NS(=O)(=O)c1cccc3ncccc13)CC(C)(C)O2` in your answer.
Return: < 3 µM

Enquiry: Name the recorded EC50 of the item COc1ccc(C2CC2)c2c1C(C(=O)NS(=O)(=O)c1cccc3ccccc13)CCO2 (centres unmarked) in your answer.
Return: < 3 µM

Enquiry: Name the recorded EC50 of the item COc1ccc(Br)c2c1[C@@H](C(=O)NS(=O)(=O)c1cccc3ccccc13)CO2 (single isomer, unassigned) in your answer.
Return: 3 to 10 µM

Enquiry: Name the recorded EC50 of the item COc1ccc(Cl)c2c1C(C(=O)NS(=O)(=O)c1cccc3ccccc13)CC(C)(C)O2 (centres unmarked) in your answer.
Return: < 3 µM

###

Biological target: F508delCFTR (Homo sapiens, UniProt P13569, DEL508-508)
Construct: expressed in transfected cells; host or cells: CFBE4lo-F508delCFTR-HRP cells (human lung derived epithelial cell line, doxycycline-inducible)
Test: Cell Surface Expression-Horse Radish Peroxidase (CSE-HRP) Assay
Type: cell-based
Conditions: test compound without co-corrector; maximum at any tested concentration (up to 20 μM), normalized to on-plate positive control (2 μM co-corrector)
REPORTED_PROPERTY: Emax

Enquiry: State Emax on F508delCFTR (Homo sapiens, UniProt P13569, DEL508-508). Entry: COc1ccc(C2CCC2)c2c1C(C(=O)NS(=O)(=O)c1cccc3c1CCCN3)CCO2 (stereo not shown)
Return: ≥ 150%

Enquiry: State Emax on F508delCFTR (Homo sapiens, UniProt P13569, DEL508-508). Entry: Cc1ccccc1S(=O)(=O)NC(=O)C1Cc2ccccc2O1 (stereo not shown)
Return: < 50%

Enquiry: State Emax on F508delCFTR (Homo sapiens, UniProt P13569, DEL508-508). Entry: COc1ccc(C2CCC2)c2c1[C@@H](C(=O)NS(=O)(=O)c1cccc3cnn(C)c13)CO2 (single isomer, unassigned)
Return: 50 to 150%

Enquiry: State Emax on F508delCFTR (Homo sapiens, UniProt P13569, DEL508-508). Entry: COc1ccc(C2CCC2)c2c1C(C(=O)NS(=O)(=O)c1cccc3ccccc13)CCO2 (stereo not shown)
Return: ≥ 150%
